These entries and their values trace back to patent US20260098059A1.

System Name: T1, β-catenin (UniProt P35222 134-665, limits assumed, biotinylated in the SPR and plate assays)
T1 construct: also called beta catenin; biotinylated β-catenin
T1 sequence (looked up): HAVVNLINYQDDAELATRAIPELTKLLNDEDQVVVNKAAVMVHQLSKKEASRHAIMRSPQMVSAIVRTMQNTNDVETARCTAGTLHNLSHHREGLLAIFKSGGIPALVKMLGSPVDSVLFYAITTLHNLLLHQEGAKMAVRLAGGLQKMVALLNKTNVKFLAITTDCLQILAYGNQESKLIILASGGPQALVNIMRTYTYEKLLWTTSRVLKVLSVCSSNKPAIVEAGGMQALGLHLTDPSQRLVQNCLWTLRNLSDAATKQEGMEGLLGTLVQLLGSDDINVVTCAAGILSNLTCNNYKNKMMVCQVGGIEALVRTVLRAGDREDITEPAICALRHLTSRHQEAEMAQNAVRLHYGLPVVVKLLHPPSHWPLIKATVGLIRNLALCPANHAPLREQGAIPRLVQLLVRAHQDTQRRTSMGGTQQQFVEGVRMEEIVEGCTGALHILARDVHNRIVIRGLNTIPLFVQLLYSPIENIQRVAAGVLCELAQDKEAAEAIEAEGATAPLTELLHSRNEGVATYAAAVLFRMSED
Experimental Protocol: SPR (Biacore)
Test Readout: Kd
For clarity, give the value followed by its unit.

# input binder: H-GGGDDLGANDELISFKDEGEQEEKSSENSSAERDLADVKSSLVNEK-NH2 (Tcf4 residues 7-51 with an added C-terminal K, amidated) [SEQ ID NO: 266 (H2N-Tcf4(7-51)-K-CONH2)] ; wanted: its Kd
58.2 nM
